Where do these numbers come from? They come from ChEMBL document CHEMBL1135982.

Ki, Stromelysin-1 (Homo sapiens), per-entry values.

{"columns": ["COMPOUND", "UNIT OF MEASURE", "READOUT RELATION", "Ki"],
 "data": [
  ["CCO[P@@](=O)(c1ccc(OC)cc1)N1Cc2ccccc2C[C@@H]1C(=O)NO", "nM", "=", 5.2],
  ["COc1ccc([P@](=O)(OCC(F)F)N2Cc3ccccc3C[C@@H]2C(=O)NO)cc1", "nM", "=", 6.67],
  ["COc1ccc([P@](=O)(OCCF)N2Cc3ccccc3C[C@@H]2C(=O)NO)cc1", "nM", "=", 9.07],
  ["COc1ccc([P@](=O)(OCC(F)(F)F)N2Cc3ccccc3C[C@@H]2C(=O)NO)cc1", "nM", "=", 6.75],
  ["COc1ccc([P@](=O)(OCCC(F)(F)F)N2Cc3ccccc3C[C@@H]2C(=O)NO)cc1", "nM", "=", 3.33],
  ["O=C(NO)C1Cc2ccccc2CN1 (stereo unspecified)", "nM", ">", 650]
]}
